Reported IC50 by item:
# Tested on: SK-MEL30 pERK
# experiment.summary: Phospho-ERK inhibition, AlphaLISA SureFire Ultra p-ERK 1/2
# Format: cell-based, human
# reported.conditions: Table D-1

In the examples that follow, each entry is paired with its recorded IC50.
                                chem_smiles  subject_of_test   result
0  O=S(=O)(Nc1ccc(F)c(Nc2ncnc3cnc(-n4cnc5c(N6CCC7(CCCO7)CC6)cccc54)nc23)c1F)c1cccc(Cl)c1Cl    SK-MEL30 pERK  < 30 nM
1  Cc1c(F)cccc1S(=O)(=O)Nc1ccc(F)c(Nc2ncnc3cnc(-n4cc(C(=O)N(C)Cc5ccncc5)c5ccccc54)nc23)c1F    SK-MEL30 pERK  < 30 nM

Okay, now this compound:
Query: Look up IC50: COc1ccc(S(=O)(=O)Nc2ccc(F)c(Nc3ncnc4cnc(-n5cnc6c(N)cccc65)nc34)c2F)c(C)c1Cl
Result: < 30 nM
